Property: furin cleavage Z-score; scope: individual sequences
# systemUnderTest: furin, P09958;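 further: purified furin at 1:10 enzyme:substrate in 50 mM HEPES pH 7.5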
# Sequence (P09958 whole entry): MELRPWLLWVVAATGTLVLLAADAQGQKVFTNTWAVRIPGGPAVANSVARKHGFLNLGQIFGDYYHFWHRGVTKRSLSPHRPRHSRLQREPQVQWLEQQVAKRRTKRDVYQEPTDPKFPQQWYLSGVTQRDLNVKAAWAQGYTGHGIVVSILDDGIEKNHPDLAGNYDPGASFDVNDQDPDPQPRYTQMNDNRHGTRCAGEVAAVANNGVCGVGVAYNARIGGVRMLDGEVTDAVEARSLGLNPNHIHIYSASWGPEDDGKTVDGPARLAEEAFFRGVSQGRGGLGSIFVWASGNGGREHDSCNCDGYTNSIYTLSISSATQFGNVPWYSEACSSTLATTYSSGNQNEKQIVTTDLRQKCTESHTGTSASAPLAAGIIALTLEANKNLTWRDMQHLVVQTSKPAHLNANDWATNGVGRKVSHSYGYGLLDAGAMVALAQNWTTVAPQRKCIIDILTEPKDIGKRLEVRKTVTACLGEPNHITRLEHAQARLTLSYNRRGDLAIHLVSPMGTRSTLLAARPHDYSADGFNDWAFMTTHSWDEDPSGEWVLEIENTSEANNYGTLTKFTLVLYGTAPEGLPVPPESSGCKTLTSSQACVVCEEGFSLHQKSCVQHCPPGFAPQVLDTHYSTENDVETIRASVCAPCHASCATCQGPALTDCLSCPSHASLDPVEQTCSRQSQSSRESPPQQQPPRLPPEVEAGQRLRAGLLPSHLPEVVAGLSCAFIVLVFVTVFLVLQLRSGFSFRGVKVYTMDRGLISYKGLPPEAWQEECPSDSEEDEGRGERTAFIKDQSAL
# experiment: furin cleavage Z-score vs untreated control; higher = more cleavage, active = 3.5 or more, inactive = 1 or less, 8 variable residues between constant flanks
# experimentalContext: 30 min
Some of the results follow. No count for the full screen is at hand.
Enter the number alone.

A selection of reference data follows.
Would you kindly share the measured furin cleavage Z-score for CATGWLAGLFAGNASASA [HC378] ?
0.703

Entry CASHRRQRRVAGNASASA [FS-499] has what furin cleavage Z-score?
6.5

Name the reported furin cleavage Z-score value associated with the sequence CAICTTPCSGAGNASASA [HC1944]
0.0737

# ---- query sequence ----
What value of measured furin cleavage Z-score is listed for CAISRRQRRVAGNASASA [FS-36] ?
6.35
